Measured bioavailability of individual entries
# measurement-notes: Pharmacokinetic profiling in the rat
# Assay type: in vivo
# assay-conditions: plasma, oral
Field: numeric (%). Do not append units.

compound: O=C(Nc1ncc([N+](=O)[O-])s1)C1CCCCC1
bioavailability, %: 17.5
--
compound: Cc1cccc(C(=O)Nc2ncc([N+](=O)[O-])s2)c1O
bioavailability, %: 72.5
--
compound: O=C(Nc1ncc([N+](=O)[O-])s1)c1ccccc1 [compound 4, N-(5-nitrothiazol-2-yl)benzamide]
bioavailability, %: 63.5

Here's the next entry for you.
Task: # return recorded bioavailability for entry O=C(Nc1ncc([N+](=O)[O-])s1)c1ccccc1O [compound 2, reference compound]
Output: 5.8
